system.name: DRB1*0301 (Homo sapiens, UniProt P01903+P01911, A100K/A102G/A103R/A169T/F55Y/I96L/K41T/L162R/M171V/P40S/Q125H/Q178H/Q39Y/R42S/S66N/T106N/T262R/W38E/Y61H)
Sequence (P01903 26-254, other chains not shown): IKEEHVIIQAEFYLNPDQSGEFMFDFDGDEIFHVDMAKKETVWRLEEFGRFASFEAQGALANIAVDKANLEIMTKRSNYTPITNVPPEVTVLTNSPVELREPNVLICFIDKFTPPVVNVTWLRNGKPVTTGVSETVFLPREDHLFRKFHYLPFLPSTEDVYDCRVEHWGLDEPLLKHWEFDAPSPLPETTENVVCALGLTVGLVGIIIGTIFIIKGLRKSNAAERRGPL
run.description: biochemical
Recorded measurements of pIC50, one per entry
# pIC50: negative log10 of molar concentration; output just the value

Reference set (3 entries):
[[record]]
compound = "CC(C)C[C@H](NC(=O)[C@H](CCC(=O)O)NC(=O)[C@@H](NC(=O)[C@H](CO)NC(=O)[C@H](CCCCN)NC(=O)[C@@H](N)C(C)C)C(C)C)C(=O)N[C@@H](CC(=O)O)C(=O)N[C@@H](C)C(=O)N1CCC[C@H]1C(=O)N[C@@H](CC(N)=O)C(=O)N[C@@H](Cc1ccc(O)cc1)C(=O)N[C@@H](Cc1c[nH]cn1)C(=O)N[C@@H](Cc1ccc(O)cc1)C(=O)N[C@@H](CCC(=O)O)C(=O)N[C@@H](CCC(=O)O)C(=O)O [Flu.NA.244]"
val = 7.19

[[record]]
compound = "CC(C)C[C@H](NC(=O)[C@H](C)NC(=O)CNC(=O)[C@H](CCC(N)=O)NC(=O)[C@@H](N)[C@@H](C)O)C(=O)N[C@@H](CC(C)C)C(=O)N[C@@H](CC(N)=O)C(=O)N[C@@H](CC(=O)O)C(=O)N[C@@H](CCCCN)C(=O)N[C@@H](Cc1c[nH]cn1)C(=O)N[C@@H](CO)C(=O)N[C@@H](CC(N)=O)C(=O)NCC(=O)N[C@H](C(=O)N[C@H](C(=O)N[C@@H](CCCCN)C(=O)N[C@@H](CC(=O)O)C(=O)O)C(C)C)[C@@H](C)O [Flu.NA.115]"
val = 6.75

[[record]]
compound = "CC[C@H](C)[C@H](NC(=O)[C@H](CO)NC(=O)[C@@H](NC(=O)[C@@H](NC(=O)[C@@H](NC(=O)[C@@H](N)CCCNC(=N)N)C(C)C)C(C)C)C(C)C)C(=O)N[C@@H](CC(=O)O)C(=O)N[C@@H](CCCNC(=N)N)C(=O)N[C@@H](Cc1ccccc1)C(=O)N[C@@H](CC(C)C)C(=O)N[C@@H](CCCNC(=N)N)C(=O)N[C@H](C(=O)N[C@@H](CCCNC(=N)N)C(=O)N[C@@H](CC(=O)O)C(=O)N[C@@H](CCC(N)=O)C(=O)O)C(C)C [Flu.PB2.496]"
val = 7.17


Give the reported pIC50 for this compound. CC[C@H](C)[C@H](NC(=O)[C@H](CS)NC(=O)[C@@H](NC(=O)[C@H](CCC(N)=O)NC(=O)[C@H](CC(=O)O)NC(=O)[C@H](CO)NC(=O)[C@H](CCCCN)NC(=O)[C@@H](NC(=O)[C@H](CC(C)C)NC(=O)[C@H](CO)NC(=O)[C@@H](N)C(C)C)C(C)C)[C@@H](C)CC)C(=O)NCC(=O)N[C@@H](Cc1ccc(O)cc1)C(=O)N[C@@H](Cc1c[nH]cn1)C(=O)N[C@@H](C)C(=O)O [Flu.HA.11]
6.29

Give the reported pIC50 for this compound. CC(C)[C@H](NC(=O)[C@H](CCC(=O)O)NC(=O)[C@H](C)NC(=O)[C@@H](NC(=O)[C@H](Cc1ccccc1)NC(=O)[C@H](Cc1ccc(O)cc1)NC(=O)[C@H](CC(N)=O)NC(=O)[C@@H](N)CCCNC(=N)N)[C@@H](C)O)C(=O)N[C@@H](CO)C(=O)N[C@@H](Cc1c[nH]cn1)C(=O)N[C@@H](CS)C(=O)N[C@@H](CCCNC(=N)N)C(=O)N[C@@H](C)C(=O)N[C@H](C(=O)N[C@@H](CCC(=O)O)C(=O)O)[C@@H](C)O [Flu.PA.446]
6.05
